- study system: Neuronal acetylcholine receptor; alpha3/beta4 (Homo sapiens, UniProt P30926+P32297)
- Sequence (P30926 whole entry): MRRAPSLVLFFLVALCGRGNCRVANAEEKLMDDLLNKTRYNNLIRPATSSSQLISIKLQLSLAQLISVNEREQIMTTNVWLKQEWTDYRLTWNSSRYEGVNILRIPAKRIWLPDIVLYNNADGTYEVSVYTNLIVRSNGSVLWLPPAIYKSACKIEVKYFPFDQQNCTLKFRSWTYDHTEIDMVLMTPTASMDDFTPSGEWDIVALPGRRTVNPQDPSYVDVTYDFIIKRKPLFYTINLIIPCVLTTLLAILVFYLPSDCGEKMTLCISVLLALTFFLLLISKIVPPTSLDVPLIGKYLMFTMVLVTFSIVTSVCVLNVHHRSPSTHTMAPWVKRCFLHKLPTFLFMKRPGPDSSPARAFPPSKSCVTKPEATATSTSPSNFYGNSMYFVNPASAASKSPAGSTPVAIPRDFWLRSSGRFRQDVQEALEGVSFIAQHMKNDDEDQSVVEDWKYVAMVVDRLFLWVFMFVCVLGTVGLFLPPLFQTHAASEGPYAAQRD
- Sequence (P32297 whole entry): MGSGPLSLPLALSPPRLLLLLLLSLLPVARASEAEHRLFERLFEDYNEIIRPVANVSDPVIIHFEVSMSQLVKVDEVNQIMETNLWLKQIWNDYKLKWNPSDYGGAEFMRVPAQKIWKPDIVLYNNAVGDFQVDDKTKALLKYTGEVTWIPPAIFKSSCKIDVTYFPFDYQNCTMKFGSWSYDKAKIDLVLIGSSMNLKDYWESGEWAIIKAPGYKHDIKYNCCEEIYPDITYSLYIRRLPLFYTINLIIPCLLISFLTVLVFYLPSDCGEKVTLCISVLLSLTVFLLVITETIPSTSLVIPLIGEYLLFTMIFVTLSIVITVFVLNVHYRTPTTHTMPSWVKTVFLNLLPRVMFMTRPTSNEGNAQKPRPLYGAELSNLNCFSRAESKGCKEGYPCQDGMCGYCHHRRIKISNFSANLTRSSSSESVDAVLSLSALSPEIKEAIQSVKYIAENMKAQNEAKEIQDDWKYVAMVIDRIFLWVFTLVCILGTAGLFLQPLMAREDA
- protocol text: Agonist activity at human […] nAChR expressed in human IMR32 cells assessed as calcium dynamics by FLIPR assay

compound	study system	EC50
c1cncc(N2CCC3(CCN3)C2)c1 (centres undefined)	Neuronal acetylcholine receptor; alpha3/beta4 (Homo sapiens, UniProt P30926+P32297)	> 100 µM
c1cncc(N2CC3CNC3C2)c1 (centres undefined)	Neuronal acetylcholine receptor; alpha3/beta4 (Homo sapiens, UniProt P30926+P32297)	6.1 µM
Clc1ccc(N2CCC3(CCN3)C2)cn1 (centres undefined)	Neuronal acetylcholine receptor; alpha3/beta4 (Homo sapiens, UniProt P30926+P32297)	6.9 µM
Clc1ccc(N2CCC3(CCNC3)C2)cn1 (centres undefined)	Neuronal acetylcholine receptor; alpha3/beta4 (Homo sapiens, UniProt P30926+P32297)	> 100 µM
Clc1ccc(OC[C@H]2CCN2)cn1	Neuronal acetylcholine receptor; alpha3/beta4 (Homo sapiens, UniProt P30926+P32297)	0.19 µM
c1cncc(N2CCC3(CCCN3)C2)c1 (centres undefined)	Neuronal acetylcholine receptor; alpha3/beta4 (Homo sapiens, UniProt P30926+P32297)	> 100 µM
Clc1ccc(N2CCC3(CCCN3)C2)cn1 (centres undefined)	Neuronal acetylcholine receptor; alpha3/beta4 (Homo sapiens, UniProt P30926+P32297)	> 100 µM
c1cncc(N2CCC3(CCNC3)C2)c1 (centres undefined)	Neuronal acetylcholine receptor; alpha3/beta4 (Homo sapiens, UniProt P30926+P32297)	> 100 µM
c1cncc(N2CC3CC2CN3)c1 (centres undefined)	Neuronal acetylcholine receptor; alpha3/beta4 (Homo sapiens, UniProt P30926+P32297)	6.4 µM

---

- study system: Neuronal acetylcholine receptor; alpha4/beta2 (Rattus norvegicus, UniProt P09483+P12390)
- Sequence (P09483 whole entry): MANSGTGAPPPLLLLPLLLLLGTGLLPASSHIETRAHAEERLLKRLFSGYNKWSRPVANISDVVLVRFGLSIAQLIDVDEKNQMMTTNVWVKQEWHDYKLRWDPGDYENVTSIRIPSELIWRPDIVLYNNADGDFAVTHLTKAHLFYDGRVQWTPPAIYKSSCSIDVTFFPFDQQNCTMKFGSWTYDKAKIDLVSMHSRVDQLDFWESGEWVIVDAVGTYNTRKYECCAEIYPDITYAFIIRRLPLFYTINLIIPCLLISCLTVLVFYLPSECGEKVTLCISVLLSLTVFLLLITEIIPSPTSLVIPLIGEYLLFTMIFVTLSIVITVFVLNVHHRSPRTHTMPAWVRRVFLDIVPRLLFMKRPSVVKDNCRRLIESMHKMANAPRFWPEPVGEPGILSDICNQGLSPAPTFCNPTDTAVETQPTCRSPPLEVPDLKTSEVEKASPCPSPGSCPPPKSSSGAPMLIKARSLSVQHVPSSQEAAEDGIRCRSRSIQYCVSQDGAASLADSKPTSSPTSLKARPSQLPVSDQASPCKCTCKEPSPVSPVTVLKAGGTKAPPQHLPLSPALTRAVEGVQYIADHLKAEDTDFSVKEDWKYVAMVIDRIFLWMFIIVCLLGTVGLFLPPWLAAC
- Sequence (P12390 whole entry): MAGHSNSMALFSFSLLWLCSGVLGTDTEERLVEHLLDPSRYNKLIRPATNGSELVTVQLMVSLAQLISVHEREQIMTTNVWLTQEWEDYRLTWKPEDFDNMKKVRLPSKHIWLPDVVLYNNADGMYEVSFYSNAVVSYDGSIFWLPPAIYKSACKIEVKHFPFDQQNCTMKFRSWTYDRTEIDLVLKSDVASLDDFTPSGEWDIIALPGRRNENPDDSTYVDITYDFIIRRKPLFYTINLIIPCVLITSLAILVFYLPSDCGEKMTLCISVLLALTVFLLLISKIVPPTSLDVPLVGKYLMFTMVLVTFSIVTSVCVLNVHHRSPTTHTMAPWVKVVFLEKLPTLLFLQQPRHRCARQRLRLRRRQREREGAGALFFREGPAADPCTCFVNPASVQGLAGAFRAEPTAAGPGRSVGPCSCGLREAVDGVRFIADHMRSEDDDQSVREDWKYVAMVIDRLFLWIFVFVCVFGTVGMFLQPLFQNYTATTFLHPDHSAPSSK
- protocol text: Displacement of [3H]cytisine from alpha4beta2 nAChR in rat brain membrane
pKi: −log10 of the molar value.
compounds and their reported pKi

compound	pKi
c1cncc(N2CCC3(CCN3)C2)c1 (stereo not drawn)	7.96
Clc1ccc(N2CCC3(CCN3)C2)cn1 (stereo not drawn)	7.68
Clc1ccc(N2CCC3(CCCN3)C2)cn1 (stereo not drawn)	7.32
c1cncc(N2CCC3(CCNC3)C2)c1 (stereo not drawn)	7.13
Clc1ccc(N2CCC3(CCNC3)C2)cn1 (stereo not drawn)	6.62
c1cncc(N2CC3CNC3C2)c1 (stereo not drawn)	8.92
c1cncc(N2CCC3(CCCN3)C2)c1 (stereo not drawn) [TC-2216]	7.48
Clc1ccc(OC[C@H]2CCN2)cn1 [TEBANICLINE]	10.32

---

- study system: Neuronal acetylcholine receptor; alpha4/beta2 (Homo sapiens, UniProt P17787+P43681)
- protocol text: Agonist activity at human recombinant alpha4beta2 nAChR expressed in human IMR32 cells assessed as calcium dynamics by FLIPR assay relative to nicotine
- Assay type: functional, cell-based
measured attribute: Activity

compound	measured attribute	value reported
Clc1ccc(C2CC3CCC2N3)cn1 (centres undefined)	Activity	154%
Clc1ccc(N2CCC3(CCNC3)C2)cn1 (centres undefined)	Activity	9%
Clc1ccc(N2CCC3(CCCN3)C2)cn1 (centres undefined)	Activity	6%
c1cncc(N2CC3CNC3C2)c1 (centres undefined)	Activity	122%
c1cncc(N2CCC3(CCN3)C2)c1 (centres undefined)	Activity	44%
c1cncc(N2CCC3(CCNC3)C2)c1 (centres undefined)	Activity	4%
Clc1ccc(N2CCC3(CCN3)C2)cn1 (centres undefined)	Activity	48%
Clc1ccc(OC[C@H]2CCN2)cn1	Activity	115%
c1cncc(N2CCC3(CCCN3)C2)c1 (centres undefined)	Activity	20%

---

- study system: Neuronal acetylcholine receptor; alpha3/beta4 (Homo sapiens, UniProt P30926+P32297)
- protocol text: Agonist activity at human […] nAChR expressed in human IMR32 cells assessed as calcium dynamics by FLIPR assay relative to nicotine
- Assay type: functional, cell-based
- experimental parameters: IMR-32
Decision: Activity beneath 20% gives met; Activity meeting or exceeding 20% gives not met.

compound	answer label
c1cncc(N2CC3CC2CN3)c1 (stereo not given)	not met
Clc1ccc(N2CCC3(CCCN3)C2)cn1 (stereo not given)	met
Clc1ccc(C2CC3CCC2N3)cn1 (stereo not given)	not met
Clc1ccc(N2CCC3(CCNC3)C2)cn1 (stereo not given)	met
c1cncc(N2CC3CNC3C2)c1 (stereo not given)	not met
c1cncc(N2CCC3(CCN3)C2)c1 (stereo not given)	met
c1cncc(N2CCC3(CCCN3)C2)c1 (stereo not given)	met
Clc1ccc(N2CCC3(CCN3)C2)cn1 (stereo not given)	not met
c1cncc(N2CCC3(CCNC3)C2)c1 (stereo not given)	met
Clc1ccc(OC[C@H]2CCN2)cn1	not met

The reported numbers originate from ChEMBL document CHEMBL1153305.
